For each record, write down the corresponding PBM binding z-score.
Test system: PPARg homodimer (NR concentration 180 nM)
Test: PBM binding z-score (relative to random genomic background probes); higher = stronger binding; sequences stand for … in GC…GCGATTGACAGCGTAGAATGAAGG

Recorded results for 5 sequences are shown here.
CCTAGTGGGTCAAGGTCACACACGCTATAGGTAC = 4.57
TGTCAAAGTTCAAAGGTAACGGAAGTATCCACAC = 3.69
GATACAGTGTCAAGGCCAGAGTACGCGTATTGAT = 0.275
CCTAGCAGGCCAGGGTCACTCAGGCATTTCGCTT = 0.362
CCGACTGGGGCAAATGTTACCATACTCAGTACGA = 0.439

# per-item lookup of PBM binding z-score; items listed below
1. TCATATAGGTAAACAGCTGAAAGTCCGTAAGTTA
2. ACTATTACTTGAGACGAGGGCAACCGATAGGTTG
3. ACTATTAGTTGAGACGAGTGCAACCGATAGGTTG
4. CTACCAAGGTAAACAAGGTCGTTGATTACTATTC
5. CCTACTGGCCCAAGGTCATTGATCAGTCAAAGCA
6. TCATATAGGCAAAGGTGAAAGTCGAACGATATGA
7. AGAATGATGTTATTAAGATCAGGGAATTGCGGTC

Reply:
[0.646, 1.24, 0.204, 0.169, 2.64, 0.811, 0.197]

====

Test system: PPARg:RXRa 30nM:10nM, anti-RXR (NR concentration 30 nM, RXRa partner concentration 10 nM)
Assay: PBM binding z-score (relative to random genomic background probes); higher = stronger binding; sequences stand for … in GC…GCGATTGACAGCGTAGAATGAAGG
Using PBM binding z-score as the sorting value, the categories are bin 1: < 0.1; bin 2: ≥ 0.1 and < 2; bin 3: ≥ 2

Task item: Lab note: which band did TCACATAGGTAAAGGTGAAAGTCGAACGATATGA land in?
Reply: bin 3

Task item: // next record TCTAGCAGGCCAGAGCGTCACTCAAGAGGTACGG
Reply: bin 2

Task item: Same question for ACTTACGCGTCAACGAGGTTATAGCACGCGTATA please.
Reply: bin 2

Task item: Same question, CCGACTGGGGCATAGGGTTACCATAAGCCAGCCC this time
Reply: bin 3

====

Test system: PXR homodimer (NR concentration 270 nM)
Assay: PBM binding z-score (relative to random genomic background probes); higher = stronger binding; sequences stand for … in GC…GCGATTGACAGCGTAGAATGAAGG
READOUT_LABEL: PBM binding z-score

Use the examples below as a reference point.
ATACCAAGGTGATCGTGAGGTCGTCGATACTAAC = 0.524
TCTATTAGTTGTAGGGCAACCGACGAGTCCGTTT = 0.613
CCTCGGAGTACAGAAGGTCAGAGCTGTCCGCTTT = 0.165
CCTCGGAGGAGAGAAGGTCAGAGCTGTCCGCTTT = -0.114
TCGGGTAGGTTAGGGGCATTCAGAATGGCGTCGA = 1.27
TCTAGTTGGTCAAGGGTCACACACTCGAAATGCG = 0.895
CGAACGAGGGCATGATTTGATAGCAAATGCCGAT = -0.377
TAGCCTAGGCCATTCAGGGGCCAGTATAGAAAGC = -0.964

Provide PBM binding z-score values for the following items, in order.
1. AGTCAAAGTACATCTAGGTAACGTAAGATATGCT
2. CCTACTGGGCCACGAAAGGTCTTTGATTCAGTGA
3. AACTCTAGGTAAGACTCAGTTCAGTGAAGAACGC
4. TTACCAAGGTGCGCTGAGGTCGTTGATCCAACTC
5. AGAACGAGGGCAATGAGTTTATAGCACGGGTGGC
6. ACTAGCAGGCCAAGTTTGGGTCACACAAACAAAG

Reply:
1. 0.334
2. -0.43
3. 0.651
4. 1.74
5. 12.1
6. -0.0733

For every item in the list below, what is its measured PBM binding z-score?
1. TCTATTAGTTGAGTAGGGCAACCGAAACAGCGGA
2. CCTACTGAGCCAAGGTCATTGATCAGTCAAAGCA

Reply:
[-0.0884, 2.46]

Dear colleague, could you please provide PBM binding z-score for the sequences listed below?
1. GGAACGAGGGCATTCGAGTTGATAACATGGCGAT
2. ATCTCAAGGTAAAGTTCAGTGAAAGATCGATAGA
3. CCTACTGGGCCAAAAAGGGCATTGATGCCGATAA

Reply:
1.36
2.1
-0.102

// each sequence listed below needs its PBM binding z-score
1. ATCTCTAGGTAAATTTCAGTGAAAGATCGATAGA
2. ATCTCTAGGTAACCAAGTTCAGTGACTGCCGAAC
3. CGTCCAAGGTCAATGCTAGGTGAGTGAAAGCATT
4. CATACTAGGTCACCGGAAGGTCAAAGTCCGCATG

Reply:
0.265
2.22
0.668
2.1

For every record below, what is its PBM binding z-score?
1. CCTTACGGGTCACTCCAGGTAATAGCATCGGAGT
2. ATCTCTCGGTAAGACTCAGTTCAGTGAAGAACGC

Reply:
1: 0.169; 2: 1.82

I'm hoping you can list PBM binding z-score for every sequence here, please.
1. ACTGGGAGGACAAAGGTCAGAGCTACGCCAGTGA
2. CGTACAGGGTCAGCTAGGCCAGAGTAGGGACGGC
3. CAAACTAGGTCAAGAGTTCAAAGTCCGCTTCCCG
4. CCTACTAGGTCAATGGTCAGCTAAAGCAGCTCGC

Reply:
1. 0.638
2. -0.805
3. 10.5
4. 0.377

Go through the items and report each one's PBM binding z-score.
1. GCTGCTAGGACAGGTTGGTCAGCTAACGGGTACG
2. TCTTGTAGATCCATAGAGGTTAAGAAAGTGCGCT
3. CCGACTGCGGCAGAAAGGTTACCATACCATCCGG
4. CCTAGCAGGTCAATCTGGGTCACTCAAGGCTTGA
5. CCTACTTGGCCATCAGGTCATTGATATCAACGTT
6. CCGACTGGCGCAAGGTTACCATAACGCACAGCCA
7. CGAACTCGGTCATTGACAGGACAGTGAATAGTAA

Reply:
1: -0.561; 2: 0.0814; 3: -0.0131; 4: 0.0416; 5: 1.62; 6: -0.271; 7: -0.233

Lab note: each sequence below needs its PBM binding z-score filled in.
1. CCTGACGGGTCACGAGGTTATAGCACGACGAGCG
2. CCTTACGGTTCACGAGGTTATAGCACGACGAGCG
3. TAGCCTAGGTCAGACCGGGCCAGTATACGCTATA
4. TCGAGTAGGTTACCAATGGGGCATTAAGCTTTCT
5. TCTATTAGTGGATTAGGGCAACCGAAACAGCGGA
6. ATCTCGAGGTAAGACTCAGTTCAGTGAAGAACGC

Reply:
0.0429
1.29
-0.412
-1.08
0.482
0.899

====

I'd appreciate it if you could supply PBM binding z-score values for the items below.
System: RARa homodimer (NR concentration 270 nM)
Test: PBM binding z-score (relative to random genomic background probes); higher = stronger binding; sequences stand for … in GC…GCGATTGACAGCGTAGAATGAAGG
Give bare numbers.

ACAGACAGGTGAGTGAAGGTAAATCAGCTGGACG = -0.397

Please look at the items below and tell me PBM binding z-score for each one, in order.
1. ACAGACGGGTGAGTGAAGGTAACTCAGCTGGACG
2. CGTCCAAGGTCAGAGAGGTCAGTGAATGCCGAGT
3. CCTTACGGCTCACTGACAGGTTATAGCATTTGGA
4. ATCTGTAGGTAACAAGTTCAGTGAAAGAGAGGAC
5. TATACATGGTCAAAGGCCAGAGTACGAATGTCGA
6. ACTAGCAGGCCAAATTTGGGTCACTCAAACAAAG
7. GCGACTGGGGCAAAGCAGGATACCATAAGGTTGG
8. CAAACTAGGTCAAGAGGTCAACGTCCGCTTCCCG

Reply:
1: -0.176; 2: 3.8; 3: 0.331; 4: 0.818; 5: 0.241; 6: -0.199; 7: -0.407; 8: 4.74

====

Test system: PPARg:RXRa IVT, anti-PPARg (NR concentration 270 nM, RXRa partner concentration 90 nM)
Test: PBM binding z-score (relative to random genomic background probes); higher = stronger binding; sequences stand for … in GC…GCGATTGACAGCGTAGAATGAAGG
Class boundaries, taken from values of PBM binding z-score, are as follows: low = under 1, medium = from 1 up to 3, high = 3 and over

ATCTCTAGGTAGAGATAGTTCAGTGAATGCAAAT = low

Task item: Kindly identify the class of AGAACGAGGGCACGCTGGGTTGATAGCAGAGTAG .
Reply: high

Task item: CCGACTGGGGCAAAGGTTTCCATACTCAGTACGA , same question.
Reply: high

Task item: Please do the same for TCGAGTAGGATAGTCGGGGCATTCAGCCAACATA as well.
Reply: low

Task item: What about CCTGCTAGGTCAGTGGTCAGCTAAAGCAGCTCGC ?
Reply: medium

Task item: And for TCTCGGAGGACACGAAAGGTCAGACCTCGACATC ?
Reply: medium

src = the supplement of paper PMC6555819
